Recorded pIC50 by entry
- measurement-description: Inhibition of Sulfolobus solfataricus HPPS
- Parameters: species or system Saccharolobus solfataricus
// field semantics: pIC50 = negative decimal log of concentration (mol/L)

smiles-notation: O=P(O)(O)C(O)(Cc1cccc(-c2ccc(-c3ccccc3)cc2)c1)P(=O)(O)O
value-kind: pIC50
observed-measurement: 5.57
--
smiles-notation: O=P(O)(O)C(O)(Cc1cccc(-c2cccc(NS(=O)(=O)c3ccc4ccccc4c3)c2)c1)P(=O)(O)O
value-kind: pIC50
observed-measurement: 6.38

// next item, pIC50 requested
Could you share which pIC50 value was measured for O=P(O)(O)C(O)(Cc1cccnc1)P(=O)(O)O ? 7.05

The measured values listed here are drawn from ChEMBL document CHEMBL1145505.
